- ASSAY_PROTOCOL: Water solubility assay
- Format: physicochemical
- SETUP_CONDITIONS: 27 °C, thermodynamic from solid, 1 mg in 1 mL water, read-out: AqS (aqueous solubility)
ENDPOINT_LABEL: solubility at 24 h (µg/mL)
Numbers only; they are read as µg/mL.

Look over these answered cases.
O=C(O)c1ccccc1C(=O)Nc1nnc(-c2ccc(O)cc2)s1 27.8
COC(=O)c1ccccc1C(=O)Nc1nnc(-c2ccc(OC)cc2)s1 0.5

For the compound shown here, `COc1ccc(-c2nnc(NC(=O)c3ccccc3C(=O)O)s2)cc1` , give the reported solubility at 24 h. 3.3

====

CC50 at 72 h values by entry
- ASSAY_PROTOCOL: Cytotoxicity assay in H9 cells (CellTiter-Glo 2.0)
- Assay type: cell-based, human
- SETUP_CONDITIONS: human; non-infected H9 cells, 72 h
API: value field is a number in µM; no unit string.

The following compounds have reported results that may help.
COC(=O)c1ccccc1C(=O)Nc1nnc(-c2ccc(OC)cc2)s1 45
CCCCOC(=O)c1ccccc1C(=O)Nc1nnc(-c2ccc(OC)cc2)s1 100
Nc1ccccc1-c1nnc(NC(=O)c2ccccc2S(=O)(=O)O)s1 130
CN(C)c1ccc(-c2nnc(NC(=O)c3ccccc3C(=O)O)s2)cc1 130
O=C(O)c1ccccc1C(=O)Nc1nnc(-c2ccc(O)cc2)s1 125
O=C(Nc1nnc(-c2ccccc2[N+](=O)[O-])s1)c1ccccc1S(=O)(=O)O 110

Alright, here's another compound for you.
Entry under review: `O=C(O)c1ccccc1C(=O)Nc1nnc(-c2ccccc2[N+](=O)[O-])s1` . Reported CC50 at 72 h? 74

====

- SYSTEM_UNDER_TEST: DDX3X ATPase (Homo sapiens, UniProt O00571)
- Construct: Recombinant his-tagged human full length DDX3X was cloned into the E. coli expression vector pET-30a(+); His tag
- Sequence (O00571 whole entry): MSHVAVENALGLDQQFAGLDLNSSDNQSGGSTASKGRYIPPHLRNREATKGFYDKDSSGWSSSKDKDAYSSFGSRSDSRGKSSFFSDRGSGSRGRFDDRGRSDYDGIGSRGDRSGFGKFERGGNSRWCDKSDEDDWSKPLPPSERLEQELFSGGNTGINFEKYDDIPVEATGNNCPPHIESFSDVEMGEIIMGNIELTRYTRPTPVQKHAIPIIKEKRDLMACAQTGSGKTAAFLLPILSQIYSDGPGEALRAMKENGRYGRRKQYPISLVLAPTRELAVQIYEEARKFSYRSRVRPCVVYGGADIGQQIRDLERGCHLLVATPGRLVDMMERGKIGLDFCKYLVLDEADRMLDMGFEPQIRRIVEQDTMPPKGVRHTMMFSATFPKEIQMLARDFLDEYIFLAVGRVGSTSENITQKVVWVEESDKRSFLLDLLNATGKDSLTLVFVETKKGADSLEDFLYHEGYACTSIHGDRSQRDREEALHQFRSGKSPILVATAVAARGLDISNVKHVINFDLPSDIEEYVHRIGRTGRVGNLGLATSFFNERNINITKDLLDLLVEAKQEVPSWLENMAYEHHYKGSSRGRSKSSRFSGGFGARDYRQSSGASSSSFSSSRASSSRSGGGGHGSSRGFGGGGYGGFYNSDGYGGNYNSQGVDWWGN
- ASSAY_PROTOCOL: DDX3X ATPase assay (ADP-Glo)
- SETUP_CONDITIONS: recombinant human DDX3X, 50 μM ATP; mean ± SD of three experiments; read-out: DDX3X ATPase Ki (apparent dissociation constant for inhibitor binding)
Quick list: log10 of Ki per entry.
log10 Ki, µM

As a guide, the following entries are already answered.
O=C(O)c1ccccc1C(=O)Nc1nnc(-c2ccccc2[N+](=O)[O-])s1 1.26
CN(C)c1ccc(-c2nnc(NC(=O)c3ccccc3C(=O)O)s2)cc1 1.08
CCOC(=O)c1ccccc1C(=O)Nc1nnc(-c2ccc(OC)cc2)s1 1.30
COC(=O)c1ccccc1C(=O)Nc1nnc(-c2ccc(OC)cc2)s1 1.19
COc1ccc(-c2nnc(NC(=O)c3ccccc3C(=O)O)s2)cc1 0.11

Next, consider the following molecule.
What is its log10 of Ki for DDX3X ATPase (Homo sapiens, UniProt O00571)? Entry: `CCCCOC(=O)c1ccccc1C(=O)Nc1nnc(-c2ccc(OC)cc2)s1` 1.37

====

- ASSAY_PROTOCOL: Parallel Artificial Membrane Permeability Assay (PAMPA)
- Type: in vitro ADME
- SETUP_CONDITIONS: pH 7.4, 5 h
Each entry below lists one item and its recorded Percentage in parentheses beside AppP (membrane retention) value.
Answer format: value, then unit.

I have this compound here, `COC(=O)c1ccccc1C(=O)Nc1nnc(-c2ccc(OC)cc2)s1` , and I need its recorded Percentage in parentheses beside AppP (membrane retention). 36%
